# Test system: SF-295 CNS
# procedureSummary: NCI tumour cell line growth inhibition, 48 h; in the data active means GI50 below about 0.43 µM; inactive means the rest
Outcome field: choose from active, inactive

Q. Returns: the outcome recorded for O=C(NCc1ccc(S(=O)(=O)c2cc(F)cc(F)c2)cc1)c1ccc2nccn2c1 in this assay.
A. inactive

Q. Returns: the outcome recorded for CCCCCCCCCCCCOC1C(C(CC(=O)NCCN2CCCC2)NS(=O)(=O)c2cc(Cl)cc(Cl)c2)OC2OC(C)(C)OC21 (stereo not given) in this assay.
A. inactive

Q. Returns: the outcome recorded for Cn1cc(-c2ccc(-c3cncc(Cl)c3N3CCC4(CCNC4=O)CC3)cc2)cn1 in this assay.
A. inactive

Q. Returns: the outcome recorded for O=C(Nc1ccc(-n2cc(-c3ccncc3)c(-c3ccc(O)c(Cl)c3)n2)cc1)Nc1cccc(Cl)c1Cl in this assay.
A. inactive

Q. Returns: the outcome recorded for COc1ccc2c(Oc3ccc(NC(=O)c4c(C)n(CC(C)(C)O)n(-c5ccccc5)c4=O)nc3)ccnc2c1 in this assay.
A. inactive

Q. Returns: the outcome recorded for CCN1C(=O)N(CC)C2Nn3c(s/c(=C4\C(=O)N(C)c5ccccc54)c3=O)=NC21 (stereo not given) in this assay.
A. inactive

Q. Returns: the outcome recorded for C=C1CC[C@@H](C(C)C)C[C@@H]2[C@H]([C@H](O)C[C@]2(C)O)[C@@]2(C)CC[C@@H]1O2 in this assay.
A. inactive

Q. Returns: the outcome recorded for CCN(CC)c1cc2oc3cc(N)cc(=N)c-3nc2cc1C in this assay.
A. inactive

Q. Returns: the outcome recorded for N.N.NCCCCCCCCCN.O=C([O-])CC(=O)[O-].O=C([O-])CC(=O)[O-].[Pt+4].[Pt+4] in this assay.
A. inactive

Q. Returns: the outcome recorded for NC(=S)N/N=C/c1cc(-c2cccc(N)c2)ccn1 in this assay.
A. inactive

Q. Returns: the outcome recorded for COc1ccc(Cc2cnc(NC(=O)c3ccc4c(c3)OCCO4)s2)cc1 in this assay.
A. active

Q. Returns: the outcome recorded for O=C1CSC(c2ccc(-c3nc4ccccc4s3)cc2)=N1 in this assay.
A. inactive

Q. Returns: the outcome recorded for O=C1C(Cl)=C(Nc2ccccc2O)C(=O)N1Cc1ccccc1 in this assay.
A. inactive

Q. Returns: the outcome recorded for O=c1[nH]c(=O)n([C@H]2CCCO2)cc1F in this assay.
A. inactive

Q. Returns: the outcome recorded for Clc1cc(Cl)cc(Nc2ccc3cc(OCCCN4CCOCC4)ccc3n2)c1 in this assay.
A. inactive

====

Would you mind telling me the reported GI50 of each entry?
# Tested on: SW-620 colon
# procedureSummary: NCI tumour cell line growth inhibition, 48 h

Q. I am curious: what GI50 value has been reported for CCCCCCCCCCN1CCC(N2CCCCC2)CC1 ?
A. 1.92 µM

Q. I am curious: what GI50 value has been reported for CCN1C(=O)N(CC)C2Nn3c(s/c(=C4\C(=O)N(C)c5ccccc54)c3=O)=NC21 (stereo unspecified) ?
A. 1.52 µM

Q. I am curious: what GI50 value has been reported for COc1ccc2c(Oc3ccc(NC(=O)c4c(C)n(CC(C)(C)O)n(-c5ccccc5)c4=O)nc3)ccnc2c1 ?
A. 34.2 µM

Q. I am curious: what GI50 value has been reported for COc1ccc(-c2csc(NC(=O)CSc3nc(C)c(-c4ccccc4)n3Nc3ccccc3)n2)cc1 ?
A. 51.9 µM

Q. I am curious: what GI50 value has been reported for Nc1ccccc1SC1CC(=O)N(c2ccc(Cl)c(Cl)c2)C1=O (stereo unspecified) ?
A. 56.5 µM

Q. I am curious: what GI50 value has been reported for C[C@]12CC[C@@H]3c4ccc(O)c([N+](=O)[O-])c4CC[C@H]3[C@@H]1CC[C@@H]2NS(=O)(=O)c1cccc(Br)c1 ?
A. 2.7 µM
